Field: log10(IC50). Provide a value for each of the compounds that follow.
Molecular target: recombinant human serotonin receptor 5-HT2A (Homo sapiens)
Construct: expressed in transfected cells; method B: loaded with Ca2+ dye
Sequence (P28223 whole entry): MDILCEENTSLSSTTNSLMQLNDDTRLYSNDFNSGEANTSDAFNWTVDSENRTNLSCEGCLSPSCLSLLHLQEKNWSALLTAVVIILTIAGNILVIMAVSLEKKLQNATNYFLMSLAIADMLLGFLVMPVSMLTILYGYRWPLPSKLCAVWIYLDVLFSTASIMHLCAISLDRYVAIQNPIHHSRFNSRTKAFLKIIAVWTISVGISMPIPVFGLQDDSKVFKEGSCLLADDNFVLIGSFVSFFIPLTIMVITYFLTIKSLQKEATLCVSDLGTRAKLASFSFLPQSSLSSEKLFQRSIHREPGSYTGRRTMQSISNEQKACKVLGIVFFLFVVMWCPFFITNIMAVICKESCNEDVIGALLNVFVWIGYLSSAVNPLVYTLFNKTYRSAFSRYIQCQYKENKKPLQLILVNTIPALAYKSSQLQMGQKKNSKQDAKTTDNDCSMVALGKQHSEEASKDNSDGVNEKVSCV
Assay: 5-HT2A antagonist Ca2+ assay in CHO-K1 cells (method A aequorin luminescence / method B FLIPR fluorescence)
Format: cell-based
Conditions: antagonist mode vs EC80 of reference agonist, method A or B, read-out: 5HT2A IC50
Source text: The methods utilized to assess the inhibitory activity of compounds on recombinant human serotonin receptor 5-HT2A was based upon previously published approaches [Jerman J C, Brough S J, Gager T, Wood M, Coldwell M C, Smart D, Middlemiss D N. Pharmacological characterisation of human 5-HT2 receptor subtypes. European Journal of Pharmacology 2001 Feb. […]
Record value = log10 of IC50 given in nM.

Use the examples below as a reference point.
# Compound, log10(IC50)
rows = [
    ("c1ccc(CN2CCC3(CCc4ccccc4O3)CC2)cc1", 3.33),
    ("OC(CO[C@H]1CCc2ccccc21)CN1CC[C@H](Oc2cccc(F)c2)C1 (stereo partly drawn)", 3.85),
    ("COc1cccc(O[C@H]2CCN(CC(O)CO[C@H]3CCc4ccccc43)C2)c1 (stereo partly drawn)", 3.63),
    ("Fc1ccc(OC2CCN(CC3CCc4cccnc43)CC2)cc1 (stereo not drawn)", 1.70),
    ("COc1ccccc1OC1CCN(CC2c3ccccc3OC2(C)C)CC1 (stereo not drawn)", 2.60),
    ("COc1ccc2c(c1)C(CN1CCC(OCc3ccccc3C)CC1)CC2 (stereo not drawn)", 1.95),
    ("C[C@H]1C[C@@]2(CCc3ccccc3O2)CCN1CCN1CCc2ccccc2C1=O", 1.70),
    ("c1ccc2c(c1)CCC1(CCN(CCO[C@@H]3CCc4ccccc43)CC1)O2", 2.85),
]

For each entry beneath this line, provide reported log10(IC50).
1. Fc1ccc(O[C@@H]2CCN(CC3CCc4cccnc43)C2)cc1 (stereo partly drawn)
2. OC(CO[C@H]1CCc2ccccc21)CN1CCC(Oc2ccc(F)cc2)CC1 (stereo in doubt) [Example 237]
3. Fc1ccc(OC2CCN(CC3CCOc4ccccc43)CC2)cc1 (stereo not drawn)
4. c1ccc(O[C@H]2COC3(CCN(C[C@@H]4CCc5ccccc54)CC3)C2)cc1 (single isomer, unassigned)
5. Cc1ccccc1OCC(O)CN1CCC(c2nc3ccccc3s2)CC1 (stereo not drawn)
6. c1ccc(OC2CCN(CCOc3ccc4cccnc4c3)CC2)cc1
7. Cc1ccccc1OC1CCN(CC2Cc3cccnc3C2)CC1 (stereo not drawn)

OUT:
3.00
2.78
1.30
1.78
1.30
2.34
1.60

List reported log10(IC50) for each of these compounds:
1. OC(CO[C@@H]1CCc2ccccc21)CN1CC[C@@H](Oc2ccc(F)cc2)C1 (stereo partly drawn)
2. Cc1cccc(N2CCN(CC(O)COC3COc4ccccc43)CC2)c1C (stereo not drawn)
3. OC(CO[C@@H]1CCc2ccccc21)CN1CC[C@H](Oc2cccc(F)c2)C1 (stereo partly drawn)

OUT:
1. 2.15
2. 1.78
3. 3.95

Quick one: give me log10(IC50) for each item below, same order please.
1. COc1ccccc1O[C@@H]1CCN(CC2Cc3ccccc3C2)C[C@@H]1C
2. OC1(CN2CCC[C@@H](Oc3ccc(F)cc3)C2)COCc2ccccc21 (stereo partly drawn)
3. COc1cccc(COC2CCN(CC3CCc4ccc(OC)cc43)CC2)c1 (stereo not drawn)

OUT:
1. 2.43
2. 3.18
3. 2.61

Hey, can you go through the list below and give me log10(IC50) for every item?
1. Fc1ccc(OC2COC3(C2)CN(CC2CCc4ccccc42)C3)cc1 (stereo not drawn)
2. COc1ccc2c(c1)C(CN1CCC(Oc3ccccc3)CC1)CC2 (stereo not drawn)
3. COc1ccccc1N1CCC2(CCN(CC3CCc4ccccc43)C2)C1 (stereo not drawn)
4. O=C1c2ccccc2CCCN1CCCN1CCC(Oc2ccc(F)cc2)CC1
5. COc1ccc2c(c1)C(CN1CCC(Oc3cccc(C#N)c3)CC1)CC2 (stereo not drawn)
6. OC(CO[C@@H]1CCc2ccccc21)CN1CC[C@@H](Oc2cccc(F)c2)C1 (stereo partly drawn)
7. Fc1ccc(O[C@H]2CCN(CC3CCc4cccnc43)C2)cc1 (stereo partly drawn)
8. N#Cc1cccc(OC2CCN(CCN3CCc4ccccc4C3=O)CC2)c1

OUT:
2.18
0.60
1.60
1.48
3.61
3.25
2.99
3.10

IN: If you can, please state the reported log10(IC50) value of `CN(C)c1ccc(OC2CCN(CCN3CCc4ccccc4C3=O)CC2)cc1` .
OUT: 3.34

###

Kindly state pIC50 for each of the entries shown.
Target: human sodium channel NaV1.2 (Homo sapiens, UniProt Q99250)
Sequence (Q99250 whole entry): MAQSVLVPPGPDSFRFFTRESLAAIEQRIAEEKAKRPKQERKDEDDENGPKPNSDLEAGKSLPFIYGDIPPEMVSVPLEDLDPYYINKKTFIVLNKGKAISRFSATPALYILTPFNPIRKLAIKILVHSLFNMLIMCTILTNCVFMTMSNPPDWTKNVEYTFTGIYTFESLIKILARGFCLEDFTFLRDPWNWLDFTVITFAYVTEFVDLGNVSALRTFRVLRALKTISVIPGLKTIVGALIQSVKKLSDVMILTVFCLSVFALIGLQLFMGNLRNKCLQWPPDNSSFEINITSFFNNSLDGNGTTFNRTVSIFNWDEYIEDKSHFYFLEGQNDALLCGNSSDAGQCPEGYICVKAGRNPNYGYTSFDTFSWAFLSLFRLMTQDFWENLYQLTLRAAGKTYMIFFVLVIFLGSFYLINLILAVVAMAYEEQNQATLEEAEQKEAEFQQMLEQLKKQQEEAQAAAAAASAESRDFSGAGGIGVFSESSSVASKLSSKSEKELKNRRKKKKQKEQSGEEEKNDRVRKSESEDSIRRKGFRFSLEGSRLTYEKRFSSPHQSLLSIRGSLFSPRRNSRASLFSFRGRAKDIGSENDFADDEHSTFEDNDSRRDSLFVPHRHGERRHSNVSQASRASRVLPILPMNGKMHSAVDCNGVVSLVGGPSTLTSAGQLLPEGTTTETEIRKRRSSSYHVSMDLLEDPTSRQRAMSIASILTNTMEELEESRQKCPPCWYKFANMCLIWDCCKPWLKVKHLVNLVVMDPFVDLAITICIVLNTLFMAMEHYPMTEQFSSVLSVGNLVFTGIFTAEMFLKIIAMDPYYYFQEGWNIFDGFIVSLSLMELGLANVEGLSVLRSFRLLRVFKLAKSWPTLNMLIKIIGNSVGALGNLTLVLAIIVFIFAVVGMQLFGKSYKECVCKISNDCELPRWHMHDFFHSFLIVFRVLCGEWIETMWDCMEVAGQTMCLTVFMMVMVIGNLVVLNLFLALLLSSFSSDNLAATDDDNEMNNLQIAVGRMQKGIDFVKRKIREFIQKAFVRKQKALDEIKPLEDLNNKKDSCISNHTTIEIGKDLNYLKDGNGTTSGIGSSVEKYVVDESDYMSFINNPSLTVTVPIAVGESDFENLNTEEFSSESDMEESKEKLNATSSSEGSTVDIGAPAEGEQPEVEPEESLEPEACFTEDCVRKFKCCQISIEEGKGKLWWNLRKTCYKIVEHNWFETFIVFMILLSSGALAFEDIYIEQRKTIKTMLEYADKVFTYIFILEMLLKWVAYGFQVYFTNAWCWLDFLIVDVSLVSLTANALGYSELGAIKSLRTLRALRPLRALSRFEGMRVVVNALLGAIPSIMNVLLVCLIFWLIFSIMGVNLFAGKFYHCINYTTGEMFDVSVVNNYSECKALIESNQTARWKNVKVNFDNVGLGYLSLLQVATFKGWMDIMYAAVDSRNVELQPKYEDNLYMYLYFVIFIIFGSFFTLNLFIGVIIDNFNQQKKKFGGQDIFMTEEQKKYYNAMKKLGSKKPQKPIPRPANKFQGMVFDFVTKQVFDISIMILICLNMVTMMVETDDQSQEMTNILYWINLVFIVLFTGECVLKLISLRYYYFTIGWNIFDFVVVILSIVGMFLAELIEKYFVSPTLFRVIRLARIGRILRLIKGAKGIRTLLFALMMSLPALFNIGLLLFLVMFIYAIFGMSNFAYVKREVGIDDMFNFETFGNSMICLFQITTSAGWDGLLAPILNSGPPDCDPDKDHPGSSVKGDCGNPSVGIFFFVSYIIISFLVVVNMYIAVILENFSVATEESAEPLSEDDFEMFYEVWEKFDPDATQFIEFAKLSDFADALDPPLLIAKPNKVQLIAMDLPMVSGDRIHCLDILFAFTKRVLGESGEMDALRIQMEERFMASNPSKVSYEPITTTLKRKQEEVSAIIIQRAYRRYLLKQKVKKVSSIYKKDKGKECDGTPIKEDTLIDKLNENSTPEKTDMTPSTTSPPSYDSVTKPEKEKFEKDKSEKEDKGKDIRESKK
Assay: NaV1.2 inhibition, automated patch-clamp (Q-Patch HTX), slow inactivated state (state C)
Type: cell-based
Conditions: hNaV1.2 CHO cells, slow inactivated state; read-out: NaV1.2 IC50
Answers are plain numbers, as −log10 of the molar value.

# Compound, pIC50
rows = [
    ("c1ccc(O[C@H]2COC3(CCN(C[C@H]4CCc5ccccc54)CC3)C2)cc1 (single isomer, unassigned)", 6.54),
    ("O=C1c2ccc(Br)cc2CCCN1CCN1CCC(Oc2ccc(F)cc2)CC1", 6.74),
    ("c1ccc(N2CCN(CC3CCc4ccccc43)CC2)cc1 (stereo not drawn)", 5.39),
]

Provide each entry's pIC50 from the list below.
1. COc1ccc2c(c1)C(CN1CCC3(CC1)OCc1ccccc13)CC2 (stereo not drawn)
2. OC(COC1CCCCC1)CN1CCC2(CCN(c3ccccc3)C2)C1 (stereo not drawn)
3. O[C@H](COC1CCCCC1)CN1[C@@H]2CC[C@H]1CN(c1ccccc1)C2
4. COc1ccc2c(c1)C(CN1CCC(OCc3ccccc3F)CC1)CC2 (stereo not drawn)
5. OC(COc1ccccc1)CN1CCN(c2cccc(Cl)c2)CC1 (stereo not drawn)
6. COc1ccc2c(c1)C(CN1CC[C@@H]3C[C@H]1CN3c1ccccc1)CC2 (stereo partly drawn)

OUT:
1: 6.23; 2: 6.37; 3: 6.24; 4: 7.00; 5: 6.36; 6: 7.40

###

Target: recombinant human serotonin receptor 5-HT2A (Homo sapiens)
Construct: expressed in transfected cells; method B: loaded with Ca2+ dye
Test: 5-HT2A antagonist Ca2+ assay in CHO-K1 cells (method A aequorin luminescence / method B FLIPR fluorescence)
Assay type: cell-based
Conditions: antagonist mode vs EC80 of reference agonist, method A or B, read-out: 5HT2A IC50
Structures can show the parent of a compound that is named as a salt.
For each record, write down the corresponding pIC50.
Numbers only, as −log10 of the molar value.

Hi there! I need pIC50 for each item below, if you can.
1. COc1ccccc1O[C@H]1CCN(CCN2CCc3ccccc3C2=O)C1
2. Fc1ccc(OC2CCN(CCC3CCc4cccnc43)CC2)cc1 (centres unmarked)
3. c1ccc2c(c1)CCC1(CN(CC3CCc4ccccc43)C1)O2 (centres unmarked)
4. Fc1ccc(OC2CCCN(CC3Cc4cccnc4C3)CC2)cc1 (centres unmarked)
5. O=C(NCCN1CCCCC1)c1cccc(-c2ccc(Oc3ccc(F)cc3)cc2)n1
6. COc1ccccc1O[C@@H]1CCN(CCN2CCc3ccccc3C2=O)[C@@H]1C
7. COc1ccccc1O[C@@H]1CCN(CC2Cc3cccnc3C2)[C@@H](C)C1 (some centres unmarked)

OUT:
5.13
8.00
6.27
7.70
5.90
8.00
6.52

Kindly give each listed record's pIC50.
1. c1ccc2c(c1)CCC1(CCN(CC3CCc4ccccc43)CC1)O2 (centres unmarked)
2. O[C@H](CCN1CCC(Oc2ccccc2)CC1)c1ccccc1
3. COc1ccccc1OC1CCN(CC2c3ccccc3CC2(C)C)CC1 (centres unmarked)
4. c1ccc2c(c1)CCC1(CCN(CCC3Cc4cccnc4C3)CC1)O2 (centres unmarked)
5. O=C1c2ccccc2CCN1CCN1C[C@@H]2C[C@H]1CN2c1ccccc1

OUT:
1: 7.30; 2: 6.85; 3: 6.15; 4: 6.66; 5: 5.15

I would be grateful if you could provide pIC50 for each of the following entries.
1. O=C1CC2(CCN(CC3CCc4ccccc43)CC2)Oc2ccccc21 (centres unmarked)
2. COc1ccccc1OC1CCN(CC2Cc3cccnc3C2)CC1 (centres unmarked)
3. OC(COc1ccccc1)CN1CCN(c2cccc(Cl)c2)CC1 (centres unmarked)
4. OC1(CN2CCC(Oc3ccc(F)cc3)CC2)COCc2ccccc21 (centres unmarked)
5. O[C@H](COC1CCCCC1)CN1CCC(Oc2ccccc2)CC1

OUT:
5.84
6.74
7.15
7.70
7.30

Fill in pIC50 for each of the 3 compounds listed.
1. COc1ccc2c(c1)C(CN1CC[C@@H](Oc3ccccc3OC)C[C@@H]1C)CC2 (some centres unmarked)
2. c1ccc([C@H]2COC3(CCN(C[C@H]4CCc5ccccc54)CC3)C2)cc1 (single isomer, unassigned)
3. COc1ccc2c(c1)C(CN1CCC(Oc3ccc(F)cc3)CC1)CC2 (centres unmarked) [Example 113, hydrochloride]

OUT:
[6.82, 7.52, 8.70]

Look at each compound and report its pIC50.
1. COc1cccc(OC2CCN(CCN3CCCc4ccccc4C3=O)CC2)c1
2. Cc1cccc(N2CCN(CC3COCc4ccccc43)CC2)c1C (centres unmarked)
3. O[C@H](COc1ccccc1)CN1CCC2(CCc3ccccc3O2)CC1
4. O=C(CN1CCC(Oc2ccc(F)cc2)CC1)C1CCc2ccccc21 (centres unmarked)
5. O[C@H](COC1CCCCC1)CN1CCC2(CCN(c3ccccc3)C2)C1 (some centres unmarked)
6. c1ccc(CCN2CCC(Oc3ccccc3)CC2)cc1

OUT:
1. 6.35
2. 7.00
3. 7.10
4. 6.72
5. 6.62
6. 7.40
